Where do the numbers come from? From patent US20060241051A1.

Biological target: T1, human OT7T175 (metastin receptor) (human, UniProt Q969F8 1-398)
T1 construct: expressed on CHO cells (hOT7T175-expressed CHO cells; hOT7T175/CHO); also called hOT7T175; h0T7T175
T1 sequence (Q969F8 whole entry L364H): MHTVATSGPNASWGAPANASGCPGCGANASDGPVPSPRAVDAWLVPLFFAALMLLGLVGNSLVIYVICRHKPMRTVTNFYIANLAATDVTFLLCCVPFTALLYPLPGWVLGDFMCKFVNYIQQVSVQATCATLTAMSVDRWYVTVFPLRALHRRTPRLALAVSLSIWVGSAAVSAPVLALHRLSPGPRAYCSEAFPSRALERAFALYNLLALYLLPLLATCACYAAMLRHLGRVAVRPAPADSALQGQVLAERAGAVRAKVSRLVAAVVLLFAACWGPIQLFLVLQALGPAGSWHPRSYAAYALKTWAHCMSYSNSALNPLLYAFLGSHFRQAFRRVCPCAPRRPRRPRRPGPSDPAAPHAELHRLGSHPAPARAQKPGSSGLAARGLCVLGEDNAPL
Test: FMAT competition with Cy-5-labeled metastin (40-54), hOT7T175-expressed CHO cells
pIC50: −log10 of the molar value. Square brackets hold non-standard residues; d marks the D form. Ends that are not written are not given here. Arg(Me) = CNC(=N)NCCC[C@H](N)C(=O)O; d3Pal = N[C@H](Cc1cccnc1)C(=O)O; Cha = N[C@@H](CC1CCCCC1)C(=O)O; Orn = NCCC[C@H](N)C(=O)O; azaGly = NNC(=O)O

binder	pIC50
[dY]NWNSFGV[Arg(Me)]F-NH2 [Compound No. 213: [D-Tyr1,Val8,Arg(Me)9]MS10]	6.72
YDWNSFGLRF-NH2 [Compound No. 57: [Asp2]MS10]	7.00
YNWNSFGLXF (Har9; C-terminal amide) [Compound No. 97: [Har9]MS10]	6.43
YNWNSFGL[Orn]F-NH2 (N-terminus assumed; SMILES CC(C)C[C@H](NC(=O)CNC(=O)[C@H](Cc1ccccc1)NC(=O)[C@H](CO)NC(=O)[C@H](CC(N)=O)NC(=O)[C@H](Cc1c[nH]c2ccccc12)NC(=O)[C@H](CC(N)=O)NC(=O)[C@@H](N)Cc1ccc(O)cc1)C(=O)N[C@@H](CCCN)C(=O)N[C@@H](Cc1ccccc1)C(N)=O) [Compound No. 314: [Orn9]MS10]	6.33
[d3Pal][dN][Cha]NSF[azaGly]L[Arg(Me)]F-NH2 (N-terminus assumed; SMILES CNC(=N)NCCC[C@H](NC(=O)[C@H](CC(C)C)NC(=O)NNC(=O)[C@H](Cc1ccccc1)NC(=O)[C@H](CO)NC(=O)[C@H](CC(N)=O)NC(=O)[C@H](CC1CCCCC1)NC(=O)[C@@H](CC(N)=O)NC(=O)[C@H](N)Cc1cccnc1)C(=O)N[C@@H](Cc1ccccc1)C(N)=O) [Compound No. 290: [D-Pya(3)1,D-Asn2,Cha3,AzaGly7,Arg(Me)9]MS10]	8.85
